molecular target: Bcl-2-like protein 10 (Homo sapiens) (UniProt Q9HD36); assay: regulators of Bim-Bcl-B binding, dose response, biochemical, multiplexed, bead-based flow cytometry, human (AID 1327); details: Bim peptide-Bcl-B binding, fluorescence
Sequence (Q9HD36 whole entry, looked up): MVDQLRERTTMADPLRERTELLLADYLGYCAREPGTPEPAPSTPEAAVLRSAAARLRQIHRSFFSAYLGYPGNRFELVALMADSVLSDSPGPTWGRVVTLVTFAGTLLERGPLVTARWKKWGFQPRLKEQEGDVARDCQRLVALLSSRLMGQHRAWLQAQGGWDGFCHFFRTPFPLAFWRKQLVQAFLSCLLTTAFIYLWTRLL
Calls of active or inactive are those of the source. The rule behind the calls is not given here.
metric: outcome

molecule: COc1cc(/C=C2/NC(=O)N(Cc3ccccc3F)C2=O)cc(OC)c1O
outcome: inactive
//
molecule: COc1ccccc1OCc1ccc(C(=O)Nc2ccccc2F)cc1
outcome: inactive
//
molecule: N#Cc1cc(-c2ccccc2)nn1-c1ccccc1
outcome: inactive
//
molecule: CCN(CC)c1ccc(NC(=O)c2ccccc2)cc1S(=O)(=O)Nc1ccccc1OC
outcome: inactive
//
molecule: COC(=O)c1ccc(C)c(NC(=O)CCNC(=O)c2ccc([N+](=O)[O-])cc2)c1
outcome: inactive
//
molecule: Cc1cccc(Nc2nc(-c3ccncc3)cs2)c1
outcome: inactive
//
molecule: Cc1cc(NC(=O)CCCC(=O)N(CC(=O)NC2CCCCC2)c2ccccc2)no1
outcome: inactive
//
molecule: Cc1ccc(/C=C2/NC(=O)N(Cc3ccc(Br)cc3)C2=O)o1
outcome: inactive

## Input Tell me the measured outcome of `CCOC(=O)/C(=C\c1ccc(Cl)cc1)c1nc2sc(C)c(C)c2c(=O)[nH]1` , please.
## Output inactive

## Input Follow-up item: CC(C(=O)Nc1ccc([N+](=O)[O-])cc1)N1CCN(C/C=C/c2ccccc2)CC1 (stereo not given)
## Output inactive

---

target: Bcl-2-like protein 10 (Homo sapiens) (UniProt Q9HD36); assay: regulators of Bim-Bcl-B binding, dose response, biochemical, multiplexed, bead-based flow cytometry, human (AID 1327); settings: Bim peptide-Bcl-B binding, fluorescence
Active and inactive are the calls of the source. How the calls were made is not given here.
metric: outcome

Past entries and their recorded results:
smiles representation: O=C(c1cnccn1)N1CCN(c2ccccc2F)CC1
meas value: inactive
--
smiles representation: CC[n+]1c(/C=C/C=C/N(C(C)=O)c2ccccc2)sc2ccccc21
meas value: inactive
--
smiles representation: Cc1ccc(-c2c3c([nH]c(=S)c2C#N)CCCC3)o1
meas value: inactive
--
smiles representation: CCOC(=O)c1nc(Nc2ccc(N3CCC(C)CC3)cc2)c2ccccc2n1
meas value: inactive
--
smiles representation: COc1ccc(-c2csc(NC(=O)/C(N=Nc3ccccc3)=C(\C)O)n2)cc1
meas value: inactive

## Input Tell me the measured outcome of `COc1ccc(C)cc1Nc1ccc(C(=O)O)cc1[N+](=O)[O-]` , please.
## Output inactive

## Input Follow-up item: `C=CCn1c(C)c(C(C)=O)c(N2CCOCC2)nc1=S`
## Output inactive

---

molecular target: Bcl-2-like protein 10 (Homo sapiens); assay: regulators of Bim-Bcl-B binding, dose response, biochemical, multiplexed, bead-based flow cytometry, human (AID 1327); conditions: Bim peptide-Bcl-B binding, fluorescence
Activity calls are given as the source filed them. No rule for the calls is given here.
metric: outcome

smiles representation: CCCn1c(C)cc(-c2csc(N)n2)c1C
target: Bcl-2-like protein 10 (Homo sapiens)
meas value: inactive
--
smiles representation: COC(=O)c1c(NC(=O)COc2ncnc3ccccc23)sc(C)c1C
target: Bcl-2-like protein 10 (Homo sapiens)
meas value: inactive
--
smiles representation: CCOc1cc(S(=O)(=O)Nc2ccccn2)ccc1F
target: Bcl-2-like protein 10 (Homo sapiens)
meas value: inactive
--
smiles representation: CC(/C=C/C(=O)c1ccc(C)cc1)=C\c1ccccc1
target: Bcl-2-like protein 10 (Homo sapiens)
meas value: inactive
--
smiles representation: O=C(N/N=C/c1ccc(O)c(O)c1O)/C(=C/c1ccc([N+](=O)[O-])cc1)NC(=O)c1ccccc1
target: Bcl-2-like protein 10 (Homo sapiens)
meas value: inactive
--
smiles representation: Cc1ccc(-n2c(CSc3nc(C)cc(C)n3)nnc2SCC(=O)NCc2ccco2)cc1
target: Bcl-2-like protein 10 (Homo sapiens)
meas value: inactive
--
smiles representation: COc1ccc(-c2noc(COc3ccc4c(c3)OCO4)n2)cc1OC
target: Bcl-2-like protein 10 (Homo sapiens)
meas value: inactive
--
smiles representation: COc1ccc(NC(=O)Cc2c(F)cccc2Cl)c(OC)c1
target: Bcl-2-like protein 10 (Homo sapiens)
meas value: inactive

## Input Tell me the measured outcome of `N#C/C(=C(/O)CN1CCN(c2ccccc2F)CC1)c1nc(-c2ccccc2)cs1` , please.
## Output inactive

## Input Follow-up item: `CCC(=O)N(CC)C1=C(O)c2ccccc2C(=O)C1=O`
## Output inactive

## Input Follow-up item: `O=C(O)c1ccc(NC2=C/C(=N/S(=O)(=O)c3ccccc3)c3ccccc3C2=O)cc1`
## Output inactive

---

target: Bcl-2-like protein 10 (Homo sapiens); assay: regulators of Bim-Bcl-B binding, dose response, biochemical, multiplexed, bead-based flow cytometry, human (AID 1327); details: Bim peptide-Bcl-B binding, fluorescence
Active and inactive are the calls of the source. How the calls were made is not given here.
metric: EC50

Past entries and their recorded results:
compound: Clc1nc2ccccc2cc1/C=N/Nc1nc2ccccc2[nH]1
metric: EC50
meas value: inactive

compound: Clc1ccc2c(N/N=C/c3ccc(Br)cc3)ccnc2c1
metric: EC50
meas value: inactive

compound: Clc1ccc2c(N/N=C/c3ccccc3Br)ccnc2c1
metric: EC50
meas value: 9.57 µM

compound: COc1cc(/C=N/Nc2nn3cnnc3c3ccccc23)ccc1O
metric: EC50
meas value: inactive

compound: CN(C)[C@@H]1C(=O)C(C(=O)NCN2CCCC2)=C(O)[C@@]2(O)C(=O)C3=C(O)c4c(O)cccc4[C@@](C)(O)C3CC12 (stereo partly specified)
metric: EC50
meas value: inactive

Next item in the queue.
## Input Identify the measured EC50 of `COc1cccc(/C=N/Nc2nn3cnnc3c3ccccc23)c1` for Bcl-2-like protein 10 (Homo sapiens).
## Output inactive

---

molecular target: Bcl-2-like protein 10 (Homo sapiens); assay: regulators of Bim-Bcl-B binding, dose response, biochemical, multiplexed, bead-based flow cytometry, human (AID 1327); settings: Bim peptide-Bcl-B binding, fluorescence
The source made the active and inactive calls. How the calls were made is not given here.
metric: outcome

compound: CC(C)n1nnnc1SCC(=O)N1CCN(C(=O)c2ccco2)CC1
outcome: inactive
--
compound: Cc1ccc(O)c(NC2=C(Cl)C(=O)N(Cc3ccccc3)C2=O)c1
outcome: inactive
--
compound: O=C(C1CCC(Cn2c(=S)[nH]c3ccccc3c2=O)CC1)N1CCN(c2ccccn2)CC1 (stereo not drawn)
outcome: inactive
--
compound: COc1ccc2cc(CN(CCc3ccccc3)Cc3nnnn3CC3CCCO3)c(=O)[nH]c2c1 (stereo not drawn)
outcome: inactive
--
compound: CN(C)C(Cc1ccccc1)C(=O)c1cccs1 (stereo not drawn)
outcome: inactive

## Input Tell me the measured outcome of CNC(=O)CC1C(=O)N(Cc2ccccc2)C(=S)N1NC(=O)c1cccc(F)c1 (stereo not drawn) , please.
## Output inactive

## Input Follow-up item: COc1ccc(C2C(C#N)=C(C)NC3=C2S(=O)(=O)c2ccccc23)cc1 (stereo not drawn)
## Output inactive

## Input Follow-up item: `Cc1ccc(Nc2nc(C)cs2)cc1`
## Output inactive

## Input Follow-up item: `O=C1N/C(=C/c2cccn2-c2ccccc2)C(=O)N1Cc1ccc(F)cc1`
## Output inactive

## Input Follow-up item: `Cc1ccc(-c2ccc(/C=C3\SC(N4CCOCC4)=NC3=O)o2)cc1`
## Output inactive
